- systemUnderTest: Human BCMA (human) (UniProt Q02223)
- measurementNotes: SPR, IgG immobilised, huBCMA analyte, 37 C
recordedEndpoint: T½

binder: L3.PY/L3.KF/H3.TAQ (antibody, V domains shown, IgG) VH: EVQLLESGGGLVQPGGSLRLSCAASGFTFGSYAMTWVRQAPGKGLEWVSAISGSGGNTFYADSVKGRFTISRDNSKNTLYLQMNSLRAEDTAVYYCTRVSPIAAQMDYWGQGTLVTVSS VL: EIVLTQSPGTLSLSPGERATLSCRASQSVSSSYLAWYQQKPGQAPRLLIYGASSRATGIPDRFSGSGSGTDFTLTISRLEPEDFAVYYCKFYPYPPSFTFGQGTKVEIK
recordedValue: 7.12 min
//
binder: L3.PY/L3.KF/H2.DY (antibody, V domains shown, IgG) VH: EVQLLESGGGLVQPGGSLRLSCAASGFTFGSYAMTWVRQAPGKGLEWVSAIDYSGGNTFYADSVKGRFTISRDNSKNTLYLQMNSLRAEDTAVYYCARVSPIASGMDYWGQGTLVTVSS VL: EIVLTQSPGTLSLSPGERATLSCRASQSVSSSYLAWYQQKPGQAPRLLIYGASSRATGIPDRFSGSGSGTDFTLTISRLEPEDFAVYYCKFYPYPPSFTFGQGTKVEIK
recordedValue: 6.35 min
//
binder: L3.PY/L1.FF/H2.HA (antibody, V domains shown, IgG) VH: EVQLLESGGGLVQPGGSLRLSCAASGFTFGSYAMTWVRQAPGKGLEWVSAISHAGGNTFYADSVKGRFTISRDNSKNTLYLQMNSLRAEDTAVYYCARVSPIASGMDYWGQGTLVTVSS VL: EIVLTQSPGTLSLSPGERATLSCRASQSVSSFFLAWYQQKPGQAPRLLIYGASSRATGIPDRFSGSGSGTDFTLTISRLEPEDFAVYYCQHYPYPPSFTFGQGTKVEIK
recordedValue: 5.29 min
